Assay: LD50
Conditions: in vivo, po; species not given; read-out: LD50 p.o.
measure: LD50 (mg/kg)

CCCc1c(OCCCCCOc2c(C(C)=O)ccc(OCC(=O)O)c2CCC)ccc(C(C)=O)c1O
900
CCCc1c(OCCCOc2c(C(C)=O)ccc(OCC(=O)O)c2CCC)ccc(C(C)=O)c1O
500
CCCc1c(OCCOCCOCCOc2c(C(C)=O)ccc(OCC(=O)O)c2CCC)ccc(C(C)=O)c1O
650
CCCc1c(OCCCOc2c(C(C)=O)ccc(OCCCC(=O)O)c2CCC)ccc(C(C)=O)c1O
770
CCCc1c(OCCOCCOc2c(C(C)=O)ccc(OCC(=O)O)c2CCC)ccc(C(C)=O)c1O
800
